- experiment: Quantitative High-Throughput drug screen in 47 multiple myeloma cell lines against the NCATS MIPE library collection: KMS12BM_JCRB cell viability assay (AID 1918971); note: nearly all actives have a fitted effect of over 35% in size
- condition_details: KMS12BM myeloma viability, CellTiter-Glo ATP, 48 h; series mostly up to 45.8 µM
Results filed as inconclusive are left out. The source made the active and inactive calls. Calls come from the whole dose curve; as a rule, active = well fitted cell-killing curve with a large enough effect; inconclusive = small, poorly fitted or top-dose-only effect, or effect the other way; inactive = no such curve, though single readings can be large or run the other way. Peptide text beside a SMILES is read from it.
Reply using exactly one outcome from YES = active, NO = inactive

# example entries with known answers
compound	classification
COC(=O)[C@H](Cc1ccccc1)NC(=O)[C@@H](N)CC(=O)O (H-Asp-Phe-OMe)	NO
Cc1c(OCC(F)(F)F)ccnc1CS(=O)c1nc2ccccc2[nH]1 (stereo not given)	NO
CCOC(=O)C1=C(O)C(=O)N(Cc2ccccc2)C1	NO
Clc1ccc2c(N3CCN(CCCN4CCN(c5ccnc6cc(Cl)ccc56)CC4)CC3)ccnc2c1	NO
CCCCCCCCOc1ccccc1C(=O)Nc1ccc(C(=O)OCC[N+](C)(CC)CC)cc1	YES
Cc1ccc(Nc2nccc(N(C)c3ccc4c(C)n(C)nc4c3)n2)cc1S(N)(=O)=O	YES

Ask: Please let me know the test result on file for CN(C)CCc1c[nH]c2ccc(Cn3cncn3)cc12 .
Reply: NO

Ask: Please let me know the test result on file for CCCS(=O)c1ccc2nc(NC(=O)OC)[nH]c2c1 (stereo not given) .
Reply: YES

Ask: Please let me know the test result on file for COc1cc(Nc2c(C#N)cnc3cc(OCCCN4CCN(C)CC4)c(OC)cc23)c(Cl)cc1Cl .
Reply: YES

Ask: Please let me know the test result on file for CC(=O)O[C@H]1C(=O)[C@@]2(C)C([C@H](OC(=O)c3ccccc3)[C@]3(O)C[C@H](OC(=O)[C@H](O)[C@@H](NC(=O)c4ccccc4)c4ccccc4)C(C)=C1C3(C)C)[C@]1(OC(C)=O)CO[C@@H]1C[C@@H]2O (stereo not given in full) .
Reply: NO

Ask: Please let me know the test result on file for CC[C@]1(O)C[C@H]2CN(CCc3c([nH]c4ccccc34)[C@@](C(=O)OC)(c3cc4c(cc3OC)N(C=O)[C@H]3[C@@](O)(C(=O)OC)[C@H](OC(C)=O)[C@]5(CC)C=CCN6CC[C@]43[C@@H]65)C2)C1 .
Reply: YES

Ask: Please let me know the test result on file for O=c1c(O)c(-c2cc(O)c(O)c(O)c2)oc2cc(O)cc(O)c12 .
Reply: YES

Ask: Please let me know the test result on file for CCC[C@@H]1C[C@@H](C(=O)N[C@@H]([C@H]2O[C@H](SC)[C@H](O)[C@@H](O)[C@H]2O)[C@@H](C)O)N(C)C1 .
Reply: YES

Ask: Please let me know the test result on file for CC(C)C[C@H](NC(=O)[C@H](Cc1ccccc1)NC(=O)c1cnccn1)B(O)O .
Reply: YES

Ask: Please let me know the test result on file for Cc1cc(=O)oc2cc(O)ccc12 .
Reply: NO

###

- experiment: qHTS of pediatric cancer cell lines to identify multiple opportunities for drug repurposing: Primary screen for NB-EBc1 cells (AID 1347095);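 note: plate controls were DMSO neutral control for no effect and bortezomib for full effect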
- condition_details: NB-EBc1 neuroblastoma viability, CellTiter-Glo luminescence, 48 h; series mostly up to 46 µM
Results filed as inconclusive are left out. Activity calls are given as the source filed them. Calls come from the whole dose curve; as a rule, active = well fitted cell-killing curve with a large enough effect; inconclusive = small, poorly fitted or top-dose-only effect; inactive = no such curve, though single readings can be large or run the other way.
Reply using exactly one outcome from True (active), False (inactive)

molecule	classification
Nc1ccn([C@@H]2O[C@H](CO)[C@@H](O)C2O)c(=O)n1 (some centres not stated)	False

Ask: Please let me know the test result on file for CNC[C@@H](O)[C@@H](O)[C@H](O)[C@H](O)CO .
Reply: False

Ask: Please let me know the test result on file for CC(C)[C@H](N)C(=O)OCCOCn1cnc2c(=O)[nH]c(N)nc21 .
Reply: False

Ask: Please let me know the test result on file for O=C1c2c(O)cc(O)cc2OC(c2ccc(O)c(O)c2)C1O (configuration not stated) .
Reply: False

###

- experiment: Quantitative High-Throughput drug screen in 47 multiple myeloma cell lines against the NCATS MIPE library collection: KMM1_JCRB cell viability assay (AID 1918960); note: nearly all actives have a fitted effect of over 30% in size
- condition_details: KMM1 myeloma viability, CellTiter-Glo ATP luminescence, 48 h; series mostly up to 45.8 µM
Inconclusive results are not listed. The source made the active and inactive calls. The call rests on the fitted dose curve; in most records, active means well fitted cell-killing curve with a large enough effect; inconclusive means small, poorly fitted or top-dose-only effect, or effect the other way; inactive means no such curve, though single readings can be large or run the other way.
Reply using exactly one outcome from YES for active, NO for inactive

# example entries with known answers
compound	classification
O=C(NCC1CCCCN1)c1cc(OCC(F)(F)F)ccc1OCC(F)(F)F (stereo unspecified)	YES
Nc1nc(N)c(N=O)c(OCC2CCCCC2)n1	YES

Ask: Please let me know the test result on file for Cc1ncc([N+](=O)[O-])n1CC(C)O (stereo unspecified) .
Reply: NO

Ask: Please let me know the test result on file for CCC[C@@H]1C[C@@H](C(=O)N[C@@H]([C@H]2O[C@H](SC)[C@H](O)[C@@H](O)[C@H]2O)[C@@H](C)O)N(C)C1 .
Reply: NO

Ask: Please let me know the test result on file for CCOC(=O)c1c(C)n(C)c2ccc(O)cc12 .
Reply: NO

Ask: Please let me know the test result on file for NS(=O)(=O)c1cc(C(=O)O)c(NCc2ccco2)cc1Cl .
Reply: NO

###

- System: HEK293
- experiment: Cytotoxic Profiling of Annotated Libraries Using Quantitative High-Throughput Screening (AID 1296008); note: % is set by controls: 0 for no effect and ±100 for the full control effect; nearly all actives have a fitted effect of over 60% in size
- condition_details: Five cell lines viability, CellTiter-Glo ATP luminescence, 48-72 h; stronger effect = lower value
Inconclusive results are not listed.
One threshold, -10%, splits the recorded max response values: lower ones are 1, equal or higher ones are 0.

# example entries with known answers
molecule	classification
C=CCc1cc(OC)c(O)c(C(=O)NCCO)c1	0
COc1ccc(C2(C#N)CCC(C(=O)O)CC2)cc1OC1CCCC1 (stereo not drawn)	0
O=c1c(O)c(-c2ccc(O)cc2O)oc2cc(O)cc(O)c12	0
CC1=C(C)C(=O)C(C(CCCCCC(=O)O)c2ccccc2)=C(C)C1=O (stereo not drawn)	1
CC1(C)NC(=O)N(c2ccc([N+](=O)[O-])c(C(F)(F)F)c2)C1=O	1

Ask: Dear colleague, could you confirm whether max response of CCOC(=O)C1=C(O)C(=O)N(Cc2ccccc2)C1 falls below -10%? Thanks.
Reply: 1

Ask: Dear colleague, could you confirm whether max response of COc1ccc2cc([C@H](C)C(=O)O)ccc2c1 falls below -10%? Thanks.
Reply: 0

###

- System: Tov112D
- experiment: Primary qHTS to identify gynecologic anti-cancer compounds using libraries of approved drugs and bioactive compounds (AID 1345084); note: nearly all actives have a fitted effect of over 55% in size
- condition_details: Gynecologic cancer cell panel viability, ATPlite luminescence, 48 h; series mostly up to 57.5 µM
Inconclusive results are not listed. Activity calls are given as the source filed them. Calls follow the shape of the dose curve; as a rule, active = well fitted cell-killing curve with a large enough effect; inconclusive = small, poorly fitted or top-dose-only effect, or effect the other way; inactive = flat fitted curve, though single readings scatter.
Reply using exactly one outcome from active, inactive

molecule	classification
Nc1ccc(S(N)(=O)=O)cc1	inactive

Ask: Please let me know the test result on file for CC1=C(C(=O)O)N2C(=O)[C@@H](NC(=O)[C@H](N)C3=CCC=CC3)[C@H]2SC1 .
Reply: inactive

Ask: Please let me know the test result on file for Cc1nc(Nc2ncc(C(=O)Nc3c(C)cccc3Cl)s2)cc(N2CCN(CCO)CC2)n1 .
Reply: inactive

Ask: Please let me know the test result on file for CC1(C)CCC(C)(C)c2cc(NC(=O)c3ccc(C(=O)O)cc3)ccc21 .
Reply: inactive

Ask: Please let me know the test result on file for CN1C(C(=O)Nc2ccccn2)=C(O)c2sccc2S1(=O)=O .
Reply: inactive

Ask: Please let me know the test result on file for CCc1nc(N)nc(N)c1-c1ccc(Cl)cc1 .
Reply: active

Ask: Please let me know the test result on file for O=C(NC(Cc1cc(=O)[nH]c2ccccc12)C(=O)O)c1ccc(Cl)cc1 (centres undefined) .
Reply: inactive

Ask: Please let me know the test result on file for O=C(NCCO[N+](=O)[O-])c1cccnc1 .
Reply: inactive

Ask: Please let me know the test result on file for Cc1ccc(C(=O)c2cc(O)c(O)c([N+](=O)[O-])c2)cc1 .
Reply: inactive

###

- experiment: qHTS of pediatric cancer cell lines to identify multiple opportunities for drug repurposing: Primary screen for Saos-2 cells (AID 1347097); note: nearly all actives have a fitted effect of over 40% in size
- condition_details: Saos-2 viability, CellTiter-Glo ATP luminescence, 48 h; series mostly up to 46 µM
Records with an inconclusive call do not appear. The source made the active and inactive calls. Calls follow the shape of the dose curve; as a rule, active = well fitted cell-killing curve with a large enough effect; inconclusive = small, poorly fitted or top-dose-only effect; inactive = no such curve, though single readings can be large or run the other way.
Reply using exactly one outcome from active, inactive

# example entries with known answers
molecule	classification
NS(=O)(=O)c1cc(C(=O)O)c(NCc2ccco2)cc1Cl	inactive
CN(C)[C@@H](CCOc1cccc2ccccc12)c1ccccc1	active
CN(c1nccc(=O)[nH]1)C1CCN(c2nc3ccccc3n2Cc2ccc(F)cc2)CC1	inactive
NC(=O)Cc1cccc(C(=O)c2ccccc2)c1N	inactive
COc1ccc(C2(C#N)CCC(C(=O)O)CC2)cc1OC1CCCC1 (centres undefined)	inactive

Ask: Please let me know the test result on file for COc1ccc2cc([C@H](C)C(=O)O)ccc2c1 .
Reply: inactive

Ask: Please let me know the test result on file for Nc1ncn([C@H]2C[C@H](O)[C@@H](CO)O2)c(=O)n1 .
Reply: inactive

Ask: Please let me know the test result on file for O=C(c1ccccc1)c1ccc2n1CCC2C(=O)O (centres undefined) .
Reply: inactive

Ask: Please let me know the test result on file for COC(=O)N[C@H](C(=O)N[C@@H](Cc1ccccc1)[C@@H](O)CN(Cc1ccc(-c2ccccn2)cc1)NC(=O)[C@@H](NC(=O)OC)C(C)(C)C)C(C)(C)C .
Reply: inactive

Ask: Please let me know the test result on file for O=c1ccc2ccc(O)c(O)c2o1 .
Reply: inactive

Ask: Please let me know the test result on file for O=C(O)c1cccnc1Nc1cccc(C(F)(F)F)c1 .
Reply: inactive

Ask: Please let me know the test result on file for CC1(C)C(=O)N(CCN2CCC(C(=O)c3ccc(F)cc3)CC2)c2ccccc21 .
Reply: inactive

Ask: Please let me know the test result on file for CC(=O)N1CCN(c2ccc(OC[C@H]3CO[C@](Cn4ccnc4)(c4ccc(Cl)cc4Cl)O3)cc2)CC1 .
Reply: active

Ask: Please let me know the test result on file for CC1=C(C(=O)O)N2C(=O)[C@@H](NC(=O)[C@H](N)C3=CCC=CC3)[C@H]2SC1 .
Reply: inactive

Data credit: PubChem BioAssay (NCATS)
